Reference source for all entries: paper PMC9369419

target.entity: GluK2 (Rattus norvegicus, UniProt P42260)
Construct: made in house; host or cells: Sf9 insect cells (membranes)
Sequence (P42260 32-908): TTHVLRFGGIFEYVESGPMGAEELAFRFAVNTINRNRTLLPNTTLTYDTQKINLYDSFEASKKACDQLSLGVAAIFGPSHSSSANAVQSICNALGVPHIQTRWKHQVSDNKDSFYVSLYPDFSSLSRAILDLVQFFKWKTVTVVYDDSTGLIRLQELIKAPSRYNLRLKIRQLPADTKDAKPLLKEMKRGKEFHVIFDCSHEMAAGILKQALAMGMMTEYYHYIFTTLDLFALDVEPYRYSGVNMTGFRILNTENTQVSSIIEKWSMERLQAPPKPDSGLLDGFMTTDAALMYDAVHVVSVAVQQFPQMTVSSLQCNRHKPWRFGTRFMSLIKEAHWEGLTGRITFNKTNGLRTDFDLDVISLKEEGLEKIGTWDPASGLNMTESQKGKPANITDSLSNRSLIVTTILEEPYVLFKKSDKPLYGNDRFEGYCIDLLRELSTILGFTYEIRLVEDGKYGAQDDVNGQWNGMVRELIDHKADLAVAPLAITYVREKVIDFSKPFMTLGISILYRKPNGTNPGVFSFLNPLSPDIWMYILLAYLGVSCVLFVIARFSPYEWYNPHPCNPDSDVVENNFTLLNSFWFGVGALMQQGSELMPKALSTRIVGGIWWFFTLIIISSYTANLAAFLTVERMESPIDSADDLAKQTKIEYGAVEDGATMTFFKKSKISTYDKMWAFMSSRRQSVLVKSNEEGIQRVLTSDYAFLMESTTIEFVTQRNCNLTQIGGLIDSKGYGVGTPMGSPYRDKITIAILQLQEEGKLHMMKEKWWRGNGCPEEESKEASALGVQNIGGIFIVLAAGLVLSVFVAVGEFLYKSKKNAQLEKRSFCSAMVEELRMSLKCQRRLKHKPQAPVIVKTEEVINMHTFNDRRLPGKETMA
procedure.summary: Radioligand binding at recombinant homomeric GluK2 in Sf9 membranes
test.parameters: recombinant rat homomeric receptor, [3H]-kainic acid, mean ± SEM
assay.endpoint: Ki

Please review the entries below; each comes with its answer.
compound="O=C(Nn1c(=O)c(=O)[nH]c2cc(C#Cc3ccc4[nH]ncc4n3)ccc21)c1ccccc1 [Compound 29]" result_value="0.091 µM"
compound="Cc1cccc(C#Cc2ccc3c(c2)[nH]c(=O)c(=O)n3NC(=O)c2ccccc2)c1 [Compound 5]" result_value="~100 µM"
compound="O=C(Nn1c(=O)c(=O)[nH]c2cc(C#Cc3ccc(Cl)cc3)ccc21)c1ccccc1 [Compound 10]" result_value="> 100 µM"

Turning now to a further record.
[in] Provide one value: measured Ki of CCc1ccc(C#Cc2ccc3c(c2)[nH]c(=O)c(=O)n3NC(=O)c2ccccc2)cc1 [Compound 7]
[out] > 100 µM
